# TEST_SYSTEM: T1, cMet-Fc fusion protein (extracellular domain of the cMet receptor expressed as an Fc-fusion protein) (human, UniProt P08581 25-932)
# T1 construct: extracellular domain; also called soluble cMet-Fc-fusion protein; soluble cMet receptor; not shown: Fc part
# T1 sequence (P08581 25-932): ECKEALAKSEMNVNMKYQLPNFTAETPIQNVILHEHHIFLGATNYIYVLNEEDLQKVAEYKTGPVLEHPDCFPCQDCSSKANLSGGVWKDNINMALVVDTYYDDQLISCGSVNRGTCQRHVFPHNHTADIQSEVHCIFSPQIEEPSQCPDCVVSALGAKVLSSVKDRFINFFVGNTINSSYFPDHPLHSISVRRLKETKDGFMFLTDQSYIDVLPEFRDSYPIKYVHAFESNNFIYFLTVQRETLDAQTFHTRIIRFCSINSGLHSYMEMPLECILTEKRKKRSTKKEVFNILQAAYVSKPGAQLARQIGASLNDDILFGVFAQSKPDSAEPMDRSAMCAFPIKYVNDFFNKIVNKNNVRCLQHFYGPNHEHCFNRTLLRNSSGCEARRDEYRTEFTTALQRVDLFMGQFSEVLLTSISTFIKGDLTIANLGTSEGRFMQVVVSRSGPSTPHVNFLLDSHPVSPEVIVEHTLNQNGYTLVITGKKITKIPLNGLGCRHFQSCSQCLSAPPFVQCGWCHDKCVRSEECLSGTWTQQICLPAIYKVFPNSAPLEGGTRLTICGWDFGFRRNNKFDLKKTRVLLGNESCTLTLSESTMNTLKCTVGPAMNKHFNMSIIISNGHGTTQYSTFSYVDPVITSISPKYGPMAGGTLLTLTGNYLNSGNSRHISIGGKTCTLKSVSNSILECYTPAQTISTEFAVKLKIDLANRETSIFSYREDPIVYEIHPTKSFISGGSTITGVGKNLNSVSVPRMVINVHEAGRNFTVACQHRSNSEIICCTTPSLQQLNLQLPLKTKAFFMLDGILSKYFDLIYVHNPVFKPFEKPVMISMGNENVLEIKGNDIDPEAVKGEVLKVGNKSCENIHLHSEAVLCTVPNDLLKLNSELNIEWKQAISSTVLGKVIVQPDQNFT
# PROCEDURE_SUMMARY: phage ELISA on cMet-Fc, competitor HGF 500 ng/mL
Ends that are not written are not given here.
With a cut-off of 70%, any % of binding in the absence of HGF strictly below it is called yes (1); any % of binding in the absence of HGF meeting it or above is called no (0).

Item AGVWICRVWDDECFFQGT [376-E05 peptide-displaying phage (SEQ ID NO: 020)] : % of binding in the absence of HGF beneath 70%, strictly?
no (0)

Determine if AQHVVTLTLIQMPFAFNFEPRM [118-B12 peptide-displaying phage (SEQ ID NO: 484)] shows % of binding in the absence of HGF strictly lower than 70%.
no (0)

Find out if reported % of binding in the absence of HGF for GSLYRCLGEASPTPPCAYEAP [445-G12 peptide-displaying phage (SEQ ID NO: 380)] is less than 70%
yes (1)

Say whether its % of binding in the absence of HGF is strictly beneath 70%. Entry: AGSTDCRGHPTFECWGWGT [549-F06 peptide-displaying phage (SEQ ID NO: 086)]
yes (1)

Please let me know if AQVGTAEAIMFSDVEDTGVHKF [103-G08 peptide-displaying phage (SEQ ID NO: 459)] shows % of binding in the absence of HGF below 70%.
no (0)

Determine whether this binder shows % of binding in the absence of HGF lower than 70% (ties excluded): AGNLPCHWNMSVCDHQGT [465-D01 peptide-displaying phage (SEQ ID NO: 034)]
no (0)

Does the reported % of binding in the absence of HGF of AGQFYCSGPPTFQCIMIGT (not fully specified (bridges); cysteine pairing not given here) [550-F11 peptide-displaying phage (SEQ ID NO: 089)] stay below 70%?
yes (1)

Confirm or reject: % of binding in the absence of HGF of GSSARCDELINDFHSCLVMAP [445-E06 peptide-displaying phage (SEQ ID NO: 375)] lies strictly below 70%
no (0)

Strictly below 70% in % of binding in the absence of HGF? GDHRKCEISAKTHEVTCYDNDP [545-F04 peptide-displaying phage (SEQ ID NO: 402)]
no (0)

Determine if AGWISCAGPPTFACWPGGT [548-F06 peptide-displaying phage (SEQ ID NO: 056)] shows % of binding in the absence of HGF strictly lower than 70%.
yes (1)

I'd appreciate it if you could check whether AGWTWCDLSMMSCIFHGT [573-E07 peptide-displaying phage (SEQ ID NO: 025)] has % of binding in the absence of HGF smaller than 70%.
no (0)

Answer whether the binder AGDFICQGPPSFVCTNIGT [550-A08 peptide-displaying phage (SEQ ID NO: 097)] has % of binding in the absence of HGF strictly less than 70%
yes (1)
